Experiment: Toxicity in CEM cells infected with HIVIIIB strain of HIV-1
Format: cell-based
Details: human, CEM (CCRF-CEM) cells infected with HIV-1 strain IIIB; read-out: TD50 (the source's name)
reported.metric: CC50 (µM)
Give just the number in µM; leave the unit off.

Previously resolved entries follow.
input.smiles: CC(C)CCN(C[C@@H](O)[C@H](Cc1ccccc1)NC(=O)[C@H](CC(N)=O)NC(=O)c1ccc2ccccc2n1)S(C)(=O)=O
CC50 [µM]: 45

input.smiles: CC(C)CCN(C[C@@H](O)[C@H](Cc1ccccc1)NC(=O)[C@H](CC(N)=O)NC(=O)c1ccc2ccccc2n1)S(=O)(=O)c1ccccc1
CC50 [µM]: 203

Continue with the compound presented below.
// `CC(C)CCN(C[C@@H](O)[C@H](Cc1ccccc1)NC(=O)OCc1ccccc1)S(=O)(=O)c1ccccc1` : CC50 value = 26
